Hello, the source for this data is PubChem BioAssay (NCI), in case you need it.

Test system: COLO 205 colon
procedure-text: NCI tumour cell line growth inhibition, 48 h; in the data active = GI50 below about 0.43 µM; inactive = the rest
Return exactly one item of 1.0 (active), 0.0 (inactive)

Solved entries (count: 2):
>  <compound>
COc1ccc(CC(=O)c2ccc(O)cc2O)cc1

>  <class-label>
0.0

$$$$
>  <compound>
CC(C)CCNCC(O)Cn1c2ccccc2c2ccccc21 (configuration not stated)

>  <class-label>
0.0

$$$$

Q: Please let me know the test result on file for Cc1nn(C)c(COc2ccc(N3CCN(S(=O)(=O)N(C)C)CC3)cc2)c1-c1cccc2c(CCCOc3cccc4ccccc34)c(C(=O)O)n(CCN3CCOCC3)c12 .
Result: 0.0

Q: Please let me know the test result on file for Cc1ccc(-c2csc(NC(=O)N3CCN(c4cc5c(cc4F)c(=O)c(C(=O)O)cn5C4CC4)CC3)n2)cc1 .
Result: 0.0

Q: Please let me know the test result on file for CC1=C(CCC(C)NCc2ccc(OCCCN3CCCCC3)cc2)C(C)(C)CCC1 (configuration not stated) .
Result: 1.0

Q: Please let me know the test result on file for c1ccc2[nH]c(-c3cc(-c4ccc5c(c4)OCO5)n[nH]3)nc2c1 .
Result: 0.0

Q: Please let me know the test result on file for O=C1NOC(c2ccc(O)cc2)(c2ccc(O)cc2)c2ccccc21 .
Result: 0.0

====

Tested on: SF-539 CNS
procedure-text: NCI tumour cell line growth inhibition, 48 h
Entries and their TGI values follow.

Here are 2 compounds together with their reported answers.
>  <smiles-representation>
Nc1c(C(=O)c2cccc(-c3cccnc3)c2)cnn1-c1ccc(F)cc1F

>  <TGI>
> 25 µM

$$$$
>  <smiles-representation>
CCOC(=O)c1nnc2c(C#N)c(-c3ccccc3)c(C)n2c1N

>  <TGI>
> 100 µM

$$$$

// recorded TGI for Nc1ccccc1C#C/C=C\C#Cc1cccc(O)c1 : 11.5 µM

====

Test system: SR leukemia
procedure-text: NCI tumour cell line growth inhibition, 48 h
value-kind: TGI (µM)
Supply the numeric figure in µM, leaving out any unit text.

>  <molecule>
COC(=O)C12OC3CO[Si](C(C)C)(C(C)C)O[Si](C(C)C)(C(C)C)OC3C1Oc1nc(=O)ccn12 (configuration not stated)

>  <units-symbol>
µM

>  <TGI>
32

$$$$

// recorded TGI for COc1cccc(/C=C2\S/C(=N/Nc3nc(-c4ccc([N+](=O)[O-])cc4)cs3)NC2=O)c1O : 74.9

// recorded TGI for O=C1c2ccc3c4c(ccc(c24)C(=O)N1CCCNCc1ccccc1Cl)C(=O)N(CCCNCc1ccccc1Cl)C3=O : 6.68

// recorded TGI for C=C1CC[C@@H]2[C@](C)(COC(C)=O)[C@H](OC(C)=O)CC[C@@]2(C)[C@@H]1CC(Nc1ccc(S(=O)(=O)Nc2ccc(Cl)nn2)cc1)C1=CCOC1=O (some centres not stated) : 8.1

// recorded TGI for O=S(=O)(/C=C/CS(=O)(=O)c1ccccc1)c1ccccc1 : 36.4

// recorded TGI for C[C@]12CC[C@@H]3c4ccc(O)cc4CC[C@H]3[C@@H]1Cc1cnc(N)nc12 : 39.2

// recorded TGI for COc1ccc(COC2CC(OC)OC(C)C2OC(=O)c2ccccc2)cc1 (configuration not stated) : 58.2

====

System: HCT-116 colon
procedure-text: NCI tumour cell line growth inhibition, 48 h
value-kind: TGI (µM)
Supply the numeric figure in µM, leaving out any unit text.

>  <compound>
O=C1CC(NCc2ccccc2)c2c(Cl)sc(Cl)c21 (stereo not given)

>  <value-kind>
TGI

>  <observed-measurement>
33.1

$$$$
>  <compound>
Nc1ccccc1C#C/C=C\C#Cc1cccc(O)c1

>  <value-kind>
TGI

>  <observed-measurement>
12.2

$$$$
>  <compound>
Cc1cnc2[nH]c(-c3ccc4ccccc4c3)cc(=O)c2c1

>  <value-kind>
TGI

>  <observed-measurement>
14.5

$$$$
>  <compound>
COC(=O)/C=C1/OC(c2ccc(OC)cc2)=C(Cl)C1=O

>  <value-kind>
TGI

>  <observed-measurement>
26.5

$$$$

Pending compound:
// recorded TGI for Cc1cccc(N/C(Sc2ccccc2)=C(/C(Cl)=C(Cl)Cl)[N+](=O)[O-])c1 : 28.7

====

Entries and their TGI values follow.
Test system: UACC-62 melanoma
procedure-text: NCI tumour cell line growth inhibition, 48 h

>  <compound>
O=C1NOC(c2ccc(O)cc2)(c2ccc(O)cc2)c2ccccc21

>  <TGI>
> 100 µM

$$$$
>  <compound>
O=c1cc(-c2cccnc2)[nH]c2cc3c(cc12)OCO3

>  <TGI>
> 100 µM

$$$$

Pending compound:
// recorded TGI for OC1CSc2nc3ccccc3n2C1 (stereo not drawn) : > 100 µM

====

System: SK-MEL-5 melanoma
procedure-text: NCI tumour cell line growth inhibition, 48 h
Entries and their TGI values follow.

Here are 2 molecules together with their reported answers.
>  <smiles-representation>
COc1ccc(CC(=O)c2ccc(O)cc2O)cc1

>  <TGI>
> 100 µM

$$$$
>  <smiles-representation>
CCOC(=O)c1nnc2c(C#N)c(-c3ccccc3)c(C)n2c1N

>  <TGI>
> 100 µM

$$$$

Pending molecule:
// recorded TGI for ClCCCCCc1c2nc(c(CCCCCCl)c3ccc([nH]3)c(CCCCCCl)c3ccc([nH]3)c(CCCCCCl)c3nc1C=C3)C=C2 : > 100 µM

====

System: SF-295 CNS
procedure-text: NCI tumour cell line growth inhibition, 48 h
value-kind: log10 TGI (log10 of the value in µM)
The common logarithm of TGI in µM is what is listed.

Here are 4 molecules together with their reported answers.
>  <molecule>
Cc1ccc(Nc2nc3c(=O)n(C)c(=O)n(C)c3nc2Nc2ccc(C)cc2)cc1

>  <log10 TGI>
1.66

$$$$
>  <molecule>
C#CC1(O)CCCCCCCCC2(CCCCCCCC1)OCCO2

>  <log10 TGI>
1.54

$$$$
>  <molecule>
CC1C(C#N)(C#N)C(C#N)=C(N)C1(Cl)[N+](=O)[O-] (centres undefined)

>  <log10 TGI>
1.56

$$$$
>  <molecule>
CCN1CN(c2ccccc2)C2(CCN(CC(CC3OCCO3)c3ccc(F)cc3)CC2)C1=O (centres undefined)

>  <log10 TGI>
1.28

$$$$

// recorded log10 TGI for CC(C)Oc1c(-c2ccc(F)cc2)c(O)c2c3c1oc(=O)n3C=CC2C (centres undefined) : 1.54

// recorded log10 TGI for CCCCCCCCC/C=C1\CCC(CN(C)C)C1=O (centres undefined) : 1.10

// recorded log10 TGI for O=[N+]([O-])c1cc(Cl)cnc1Br : 1.03

// recorded log10 TGI for COC(=O)c1cc2ccccc2c2c3c(ccc12)OCO3 : 2.74

// recorded log10 TGI for N#Cc1nc2c(S(=O)(=O)c3ccc(Cl)cc3)c(N)n(CCCN3CCOCC3)c2nc1C#N : 1.61

====

System: UACC-62 melanoma
procedure-text: NCI tumour cell line growth inhibition, 48 h
Entries and their GI50 values follow.

>  <smiles-representation>
CC(=O)[CH-]C(=O)c1ccccc1.CC(=O)[CH-]C(=O)c1ccccc1.CC(=O)[CH-]C(=O)c1ccccc1.[In+3]

>  <tested-on>
UACC-62 melanoma

>  <observed-measurement>
32.9 µM

$$$$
>  <smiles-representation>
O=C1C(SCCO)=C(SCCO)C(=O)N1c1ccc(-c2ccccc2)cc1

>  <tested-on>
UACC-62 melanoma

>  <observed-measurement>
6.34 µM

$$$$

Query O=C1NOC(c2ccc(O)cc2)(c2ccc(O)cc2)c2ccccc21 on UACC-62 melanoma; GI50 returned: > 100 µM

Query N#Cc1nc2c(S(=O)(=O)c3ccc(Cl)cc3)c(N)n(CCCN3CCOCC3)c2nc1C#N on UACC-62 melanoma; GI50 returned: 10.8 µM

====

Entries and their TGI values follow.
Test system: NCI-H23 lung
procedure-text: NCI tumour cell line growth inhibition, 48 h

>  <smiles-representation>
C[C@]12CC[C@@H]3c4ccc(O)cc4CC[C@H]3[C@@H]1Cc1cnc(N)nc12

>  <observed-measurement>
41 µM

$$$$
>  <smiles-representation>
CC(=O)[O][Sn]([CH2]c1ccccc1)([CH2]c1ccccc1)[CH2]c1ccccc1

>  <observed-measurement>
> 7.83 µM

$$$$

Pending molecule:
Query c1ccc(CSC2(SCc3ccccc3)CCCCC2)cc1 on NCI-H23 lung; TGI returned: > 10 µM

====

Test system: UACC-62 melanoma
procedure-text: NCI tumour cell line growth inhibition, 48 h
value-kind: TGI

Here are 2 molecules together with their reported answers.
>  <smiles-representation>
CCOC(=O)/C=C(/C)Nc1nc2c(c(C(=O)OC)c1C#N)CCCC2

>  <value-kind>
TGI

>  <observed-measurement>
> 100 µM

$$$$
>  <smiles-representation>
CCOC(=O)NN(C(=O)OCC)c1c(C)cc(C)cc1C

>  <value-kind>
TGI

>  <observed-measurement>
> 100 µM

$$$$

Pending molecule:
// recorded TGI for CCOC(=O)/C(O)=C(/C(=O)OC)c1ccc(Cl)cc1 : > 100 µM
